- Test system: E. coli TESEC Mtb Alr
- Method: growth (OD600 after 10 h); higher = more growth (less inhibition)
- Test settings: arabinose 1000 nM; compound 0.1 mM; raw OD600 reference: median of DMSO wells 0.294, cell-free background 0.041
We begin with a simple list: items and their reported growth.
I'd appreciate a reply containing only the number, no unit.

Record excerpt, results attached:
{"Compound": "CC1(C)NC(=O)N(c2ccc([N+](=O)[O-])c(C(F)(F)F)c2)C1=O [Nilutamide]", "growth": 0.273}
{"Compound": "Cn1nnc2c(C(N)=O)ncn2c1=O [Temozolomide]", "growth": 0.289}
{"Compound": "Cc1cnc(NC(=O)C2=C(O)c3ccccc3S(=O)(=O)N2C)s1", "growth": 0.186}
{"Compound": "CC(=O)N[C@@H](CS)C(=O)O", "growth": 0.298}

Here is the next item to consider.
Please report growth for the following compound: CCc1oc2ccccc2c1C(=O)c1cc(Br)c(O)c(Br)c1
0.0448
